# Experiment: yeast display, Sf9 membrane polyspecificity reagent, FACS + sequencing; frameworks hold sequencing errors
Experimental readout: polyreactivity (PSR sort gate)

1. QVQLVESGGGLVQAGGSHRLSCAASGSTFSYNTMGWYRQAPGKERELVAAIRSGGSTYYADSVKGRFTISRDNAKNTVYLQMNSLKPEDTAVYYCATDKFHRKVLHWYDYWGQGTQVTVSS    low polyreactivity
2. QVQLQESAGGLVQAGDSQRMSCAASGNSFRFTDMGWYRQAPGKERELVAAINAGSTTYYADSVKGRFTISLDNAKNTVYLQMNSLKPEDTAVYYCAVYYLGSGTFGYWGQGAQVTVSS    high polyreactivity
3. QVQLVESGGSLVQAGGSLRLSCDASGRTFGTNAMGWYRQAPRKETELVAAISWRGTSTYYADSVKGRFTNSRDNAKNTVYLQMNSLKPEDTAVYYCAARGYRADQWEYDYWGQGTQVTVSS    low polyreactivity
4. QVQLVQAGGGLVQAGGILRLSCAASGRIFRLYTMGWYRQAPGKERELVAAINSSGGNTYYADSVKGRFTISRDNAKNNVNLQMNSLKPEDTAVYYCAAGWSYPVRNIYYDWGQGTQVTVSS    high polyreactivity
5. QVQLVESGGGLVQAGGSLRLSCAASGSTFQIYAMGWYRQAPGKEWELVAAITSSSSTNYADSVKGRFTISRDNAKNTVYLQMNSLKPEDTAVYYCAADVSWRSNWYDYWGQGTQVTVSS    low polyreactivity
6. QVQLVESGGGLVQAGGSLRLSCAASGRTFYANAMGWYRQAPGKERELVAAISRGGRTYYADSVKGRFTISRDNAKNTVYLQMNIMIPEDTSVYYCAARHTTTAVYSYYRADGGYWGQGTQVTVSS    low polyreactivity
7. QQQLQESGSGLVQAGGSLRLSCAASGNIFQDWVMGWYRQAPGKERELVAAISPGAITYYADSVKGRFTISRDNAKNTVYLQTNSLKPEDTAVYYCAAYYIVEYLHGYWGQGTRVTVSS    low polyreactivity
8. QVQLVESGGGLVQAGGSLRLSCAASGGIFSYYTMGWYRQAPGKERELVARITTGGSTNYADSVKGRFTISRDNAKNTVYLQMNSLKPEDTAVYYCAATGPKYWLTWSSYTRYDYWGQGTQVTVSS    high polyreactivity
9. QVQLVESGGGLVQAGGSLRLSCAASGFISPSNAMGWYRQAPGKERELVAAIRSSDGSTYYADSVKGRFTISRDNAKNTVYLQMNSLKPEDTAVYYCAAGGSYYRDDYWGQGTQVTVSS    low polyreactivity
10. QVQLVESGGGLVQAGGSLRLSCAASGGTFFGYAMGWYRQAPGKERELVAAIRWSDGRTYYADSVKGRFTISRDNAKNTVYLQMNSLKPEDTAVYDCNADDARLFDYWGQGTQVTVSS    low polyreactivity
11. QVQLVESGGGLVQAGGSLRLTCAASGFIFTYNAMGWYRQAPGKERELVAAISWSGSRTNYADTVKGRFTISRDNAKHTVYLQMNSLKPEDTAVFYCAAKYKYRTYNYWGQGTQVTVSS    high polyreactivity

Values compiled from the nanobody polyreactivity screen of Harvey et al. (2022).
